# assay_system: FGFR2 (Homo sapiens (Human), UniProt P21802)
# Sequence (P21802 22-821): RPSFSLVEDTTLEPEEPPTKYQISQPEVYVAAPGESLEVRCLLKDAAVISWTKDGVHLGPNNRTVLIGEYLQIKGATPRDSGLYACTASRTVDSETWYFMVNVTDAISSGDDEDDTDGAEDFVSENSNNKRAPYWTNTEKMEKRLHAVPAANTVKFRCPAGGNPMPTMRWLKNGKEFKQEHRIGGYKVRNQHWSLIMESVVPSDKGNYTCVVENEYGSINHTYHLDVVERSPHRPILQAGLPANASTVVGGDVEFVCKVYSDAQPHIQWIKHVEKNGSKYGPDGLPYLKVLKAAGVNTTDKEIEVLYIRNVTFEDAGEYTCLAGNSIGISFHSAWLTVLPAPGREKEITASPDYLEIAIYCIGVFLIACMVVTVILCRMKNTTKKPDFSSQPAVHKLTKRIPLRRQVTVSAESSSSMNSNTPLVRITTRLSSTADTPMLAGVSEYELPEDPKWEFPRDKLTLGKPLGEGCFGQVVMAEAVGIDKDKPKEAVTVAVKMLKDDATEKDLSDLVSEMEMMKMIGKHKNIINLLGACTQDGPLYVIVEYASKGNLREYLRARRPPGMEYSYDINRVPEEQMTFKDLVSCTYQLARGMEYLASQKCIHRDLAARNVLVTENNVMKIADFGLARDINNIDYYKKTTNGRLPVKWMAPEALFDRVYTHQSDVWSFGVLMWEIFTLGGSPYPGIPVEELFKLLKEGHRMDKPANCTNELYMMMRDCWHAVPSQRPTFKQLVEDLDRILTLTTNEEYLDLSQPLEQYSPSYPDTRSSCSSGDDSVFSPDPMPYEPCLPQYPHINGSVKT
# assay_remarks: Biochemical FGFR2 Caliper assay
pIC50: −log10 of the molar value.
metric_name: pIC50

Some compounds with known pIC50 results, for comparison:
Q: Consider the compound shown here: `C=CC(=O)Nc1ccccc1-c1c(-c2ccc(Oc3cccc(C)n3)cc2)c2c(N)ncnc2n1C` What is its recorded pIC50?
Result: > 7.00

Q: Consider the compound shown here: `COCC#Cc1cc(C)c(-c2c(C3=CC[C@@H](C(=O)N4CCC[C@H]4C)CC3)c3c(N)ncnc3n2C)cn1` What is its recorded pIC50?
Result: 6.00 to 6.60

Q: Consider the compound shown here: C#Cc1cc(OC)c(-c2c(-c3ccc(Oc4nccc(C)n4)c(F)c3)c3c(C)ncnc3n2C)c(C)n1 (atropisomer, axis not shown) [Example 1446] What is its recorded pIC50?
Result: > 7.00

Quick one: give me pIC50 for each item below, same order please.
1. C=C(C)C(=O)Nc1ccc(-c2c(C3=CCN(C(=O)N4CCCC4)CC3)c3c(N)ncnc3n2C)cc1
2. Cn1c([C@@H]2CCN(C#N)C2)c(-c2ccc(C(=O)N3CCCC3)cc2)c2c(N)ncnc21 (single isomer, unassigned)
3. C=CC(=O)Nc1ccc(-c2cn3ncnc(N)c3c2-c2ccc(Oc3cccc(C)n3)cc2)cc1
4. C#Cc1ncc(-c2c(-c3ccc(C(=O)NCC(C)C)c(F)c3)c3c(N)ncnc3n2C)c(C)c1F

Result:
1: 4.00 to 6.00; 2: > 7.00; 3: > 7.00; 4: > 7.00
